// values below are reported EC50
- subject_of_test: Potassium voltage-gated channel subfamily KQT member 1 (Homo sapiens) (UniProt P51787)
- Sequence (P51787 whole entry, looked up): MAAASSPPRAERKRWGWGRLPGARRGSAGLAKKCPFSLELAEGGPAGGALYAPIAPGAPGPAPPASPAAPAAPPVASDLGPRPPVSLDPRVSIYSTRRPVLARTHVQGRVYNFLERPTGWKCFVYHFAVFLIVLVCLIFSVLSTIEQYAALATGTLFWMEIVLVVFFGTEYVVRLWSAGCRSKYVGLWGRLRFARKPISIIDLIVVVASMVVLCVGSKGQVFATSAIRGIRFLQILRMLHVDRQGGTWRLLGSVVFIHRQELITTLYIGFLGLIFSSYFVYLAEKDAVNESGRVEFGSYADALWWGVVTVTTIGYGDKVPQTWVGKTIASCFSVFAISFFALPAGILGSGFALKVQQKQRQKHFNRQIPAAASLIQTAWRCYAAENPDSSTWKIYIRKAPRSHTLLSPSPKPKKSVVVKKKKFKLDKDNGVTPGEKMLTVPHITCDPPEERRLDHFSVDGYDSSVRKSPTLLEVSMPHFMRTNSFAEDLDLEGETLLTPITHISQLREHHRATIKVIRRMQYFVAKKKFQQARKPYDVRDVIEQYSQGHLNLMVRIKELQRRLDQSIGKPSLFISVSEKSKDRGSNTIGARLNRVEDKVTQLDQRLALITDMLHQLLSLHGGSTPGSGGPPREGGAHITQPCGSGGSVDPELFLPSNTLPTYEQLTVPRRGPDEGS
- test_protocol: KCNQ1 potassium current enhancement – automated patch clamp, CHO cells, set 2, SAR follow-up (AID 602121)

Cc1ccc(S(=O)(=O)N2CCCC[C@@H]2C(=O)Nc2cccc(C(F)(F)F)c2)cc1 ... 3.24 µM
COc1ccc(-c2csc(NC(=O)[C@H]3CCCCN3S(=O)(=O)c3ccc4c(c3)OCO4)n2)cc1 ... 0.778 µM
Cc1ccc(S(=O)(=O)N2CCCC[C@@H]2C(=O)Nc2ccc(C)c(C)c2)cc1 ... 2.25 µM

Consider now this further molecule.
Field request: EC50 | item: Cc1ccc(S(=O)(=O)N2CCCC[C@@H]2C(=O)Nc2ccc(F)c(C)c2)cc1
3.35 µM

Cited source: PubChem BioAssay AID602121
